Target: Human BCL-XL protein (N-terminal HiBiT tagged BCL-XL expressed in HT1080 cells) (Homo sapiens)
Construct: expressed in transfected cells; host or cells: HT-1080 (ATCC CCL-121), stably transduced with lentivirus pLV-UBC-N-HiBiT-BCL-XL-PGK-puro and selected with puromycin
Sequence (Q07817 whole entry): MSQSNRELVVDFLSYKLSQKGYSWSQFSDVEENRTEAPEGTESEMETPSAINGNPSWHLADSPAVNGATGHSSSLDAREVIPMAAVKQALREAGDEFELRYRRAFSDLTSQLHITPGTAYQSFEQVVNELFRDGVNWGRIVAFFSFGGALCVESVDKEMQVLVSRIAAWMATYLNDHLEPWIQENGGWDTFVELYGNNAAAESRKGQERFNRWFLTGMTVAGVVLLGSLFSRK
Test: HiBiT Based Degradation Assay
Format: cell-based
Details: bottom of BCL-XL degradation curve (remaining HiBiT-BCL-XL signal vs DMSO control), HT1080 cells, 24 hours incubation
readout-label: Ymin (24 h)

Below, 6 compounds whose answers are already recorded.
compound	observed-value
COc1c(NC(=O)CN2CC[C@H](CCCOc3ccc(-c4ccc(N5CCc6cccc(C(=O)Nc7nc8ccccc8s7)c6C5)nc4C(=O)O)c(C)c3)C[C@H]2C)ccc2c(C3CCC(=O)NC3=O)nn(C)c12 (stereo partly drawn) [Compound 210c]	A (Ymin < 30%)
Cn1nc(C2CCC(=O)NC2=O)c2ccc(NC(=O)CN3CCC(CCCOc4ccc(-c5ccc(N6CCc7cccc(C(=O)Nc8nc9ccccc9s8)c7C6)nc5C(=O)O)c(C(F)(F)F)c4)CC3)nc21 (stereo not drawn) [Compound 146]	B (30% ≤ Ymin < 50%)
Cn1nc(C2CCC(=O)NC2=O)c2ccc(NC(=O)CN3CCC(CCCOc4ccc(-c5ccc(N6CCc7cccc(C(=O)Nc8nc9ccccc9s8)c7C6)nc5C(=O)O)c(C(F)(F)F)c4)CC3)c(F)c21 (stereo not drawn) [Compound 183]	B (30% ≤ Ymin < 50%)
Cc1c(OCC2CC3(CCN(CC(=O)Nc4ccc5c(C6CCC(=O)NC6=O)nn(C)c5c4C)CC3)C2)cccc1-c1ccc(N2CCc3cccc(C(=O)Nc4nc5ccccc5s4)c3C2)nc1C(=O)O (stereo not drawn) [Compound 117]	B (30% ≤ Ymin < 50%)
Cn1nc(C2CCC(=O)NC2=O)c2ccc(NC(=O)CN3CCC4(CC3)CC(COc3ccc(-c5ccc(N6CCc7cccc(C(=O)Nc8nc9ccccc9s8)c7C6)nc5C(=O)O)c(C(F)(F)F)c3)C4)nc21 (stereo not drawn) [Compound 148]	B (30% ≤ Ymin < 50%)
Cc1cc(O[C@H](C)CCC2CCN(CC(=O)Nc3ccc4c(C5CCC(=O)NC5=O)nn(C)c4c3F)CC2)ccc1-c1ccc(N2CCc3cccc(C(=O)Nc4nc5ccccc5s4)c3C2)nc1C(=O)O (single isomer, unassigned) [Compound 224b]	A (Ymin < 30%)

Go through the list and state Ymin (24 h) for each entry.
1. COc1c(NC(=O)CN2CCC3(CC2)CC(Oc2cccc(-c4ccc(N5CCc6ccnc(C(=O)Nc7nc8ccccc8s7)c6C5)nc4C(=O)O)c2C)C3)ccc2c(C3CCC(=O)NC3=O)nn(C)c12 (stereo not drawn) [Compound 184]
2. Cn1nc(C2CCC(=O)NC2=O)c2ccc(NC(=O)CN3CCC4(CC3)CC(Oc3ccc(-c5ccc(N6CCc7ccnc(C(=O)Nc8nc9ccccc9s8)c7C6)nc5C(=O)O)c(C(F)(F)F)c3)C4)nc21 (stereo not drawn) [Compound 206]

B (30% ≤ Ymin < 50%)
B (30% ≤ Ymin < 50%)
